Measured values drawn from patent US20160137730A1 for this set.

Biological target: T1, Human P-cadherin (CDH3) D1-5 (human, UniProt P22223 108-652)
T1 construct: Human CDH3 residues 108-652 with a C-terminal 6xHis tag, made in Tn5 insect cells with baculovirus (NM_001793.4, NP_001784); It may include a secretion signal and vector residues, as the printed cyno constructs do; no cleavage site is stated; also called human pCAD-6xHis; human P-cadherin ECD
T1 sequence (P22223 108-652 limits assumed): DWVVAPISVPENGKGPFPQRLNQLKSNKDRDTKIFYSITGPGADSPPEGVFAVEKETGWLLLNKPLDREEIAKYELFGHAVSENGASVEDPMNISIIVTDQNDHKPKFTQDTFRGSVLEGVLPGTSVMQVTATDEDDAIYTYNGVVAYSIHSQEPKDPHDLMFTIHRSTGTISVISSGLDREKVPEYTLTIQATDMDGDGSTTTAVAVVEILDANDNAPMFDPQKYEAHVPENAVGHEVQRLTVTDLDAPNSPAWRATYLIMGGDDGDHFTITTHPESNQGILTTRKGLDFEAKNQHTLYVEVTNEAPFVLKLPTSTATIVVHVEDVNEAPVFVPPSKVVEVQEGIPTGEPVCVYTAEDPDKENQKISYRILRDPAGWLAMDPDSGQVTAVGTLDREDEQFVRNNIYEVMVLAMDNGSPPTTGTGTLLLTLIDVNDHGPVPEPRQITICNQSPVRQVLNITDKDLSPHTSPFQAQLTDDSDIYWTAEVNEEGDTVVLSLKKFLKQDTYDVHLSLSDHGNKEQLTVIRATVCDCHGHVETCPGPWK
Assay: SPR Biacore, Ab captured via Protein A, ECD-6xHis analyte, 25C, 1:1 fit
pKd: −log10 of the molar value.

>  <binder>
NEG0016 (antibody, human IgG1, kappa, V domains shown, Humanized anti-P-cadherin antibody derived from a murine hybridoma; also called NEG0016 Naked) VH: QIQLVQSGAEVKKPGSSVKVSCKVSGYTFTDHTLHWMRQAPGQGLEWMGYIYPRSGSTKYNENFRGRVTITADTSSSTAYMELSSLRSEDTAVYYCARRLLFLPLDYWGQGTLVTVSS VL: EIVMTQSPATLSLSPGERATLSCRSSQSLLSSGNQKSYLTWYQQKPGQAPRLLIYWASTRESGIPARFSGSGSGTDFTLTISSLQPEDFAVYYCQNDYSYPFTFGQGTKLEIKR

>  <pKd>
7.22

$$$$
>  <binder>
NEG0064 (antibody, human IgG1, kappa, V domains shown, Humanized anti-P-cadherin antibody derived from a murine hybridoma; also called NEG0064 Naked) VH: QIQLVQSGAEVKKPGSSVKVSCKVSGYTFTDHTLHWMRQAPGQGLEWMGYIYPRSGSTKYNENFRGRVTITADTSSSTAYMELSSLRSEDTAVYYCVRRLLFLPLDYWGQGTLVTVSS VL: EIVMTQSPATLSLSPGERATLSCRSSQSLLSSGNQKSYLTWYQQKPGQAPRLLIYWASTRESGIPARFSGSGSGTDFTLTISSLQPEDFAVYYCQNDYSYPFTFGQGTKLEIKR

>  <pKd>
8.44

$$$$
>  <binder>
NOV169N31Q (antibody, human IgG1, kappa, V domains shown, N31Q in HCDR1 removes a deamidation site of parental NOV169; also called anti-P-cadherin antibody NOV169N31Q; NOV169N31Q Naked) VH: QVQLQQSGPGLVKPSQTLSLTCAISGDSVSSQSAAWNWIRQSPSRGLEWLGRIYYRSKWYNDYALSVKSRITINPDTSKNQFSLQLNSVTPEDTAVYYCARGEGYGREGFAIWGQGTLVTVSS VL: DIQMTQSPSSLSASVGDRVTITCRASQTISNTLAWYQQKPGKAPKLLIYAASNLQSGVPSRFSGSGSGTDFTLTISSLQPEDFATYYCQQYLSWFTFGQGTKVEIKR

>  <pKd>
7.48

$$$$
>  <binder>
NEG0067 (antibody, human IgG1, kappa, V domains shown, Humanized anti-P-cadherin antibody derived from a murine hybridoma; also called NEG0067 Naked) VH: QIQLVQSGAEVKKPGSSVKVSCKVSGYTFTDHTLHWMRQAPGQGLEWMGYIYPRSGSTKYNENFKGRVTITADTSSSTAYMELSSLRSEDTAVYYCVRRLLFLPLDYWGQGTLVTVSS VL: EIVMTQSPATLSLSPGERATLSCRSSQSLLSSGNQKSYLTWYQQKPGQAPRLLIYWASTRESGIPARFSGSGSGTDFTLTISSLQPEDFAVYYCQNDYSYPFTFGQGTKLEIKR

>  <pKd>
8.49

$$$$
>  <binder>
NEG0013 (antibody, human IgG1, kappa, V domains shown, Humanized anti-P-cadherin antibody derived from a murine hybridoma; also called NEG0013 Naked) VH: EVQLVQSGAEVKKPGESLKISCKVSGYTFTDHTIHWMRQMPGKGLEWMGYIYPRSGSINYNEKFKGQVTISADKSSSTAYLQWSSLKASDTAMYYCARRNLFLPMEYWGQGTLVTVSS VL: DIVMTQTPLSLPVTPGEPASISCRSSQSLLSSGNQKNYLTWYLQKPGQSPQLLIYWASTRESGVPDRFSGSGSGTDFTLKISRVEAEDVGVYYCQNDYSYPLTFGQGTKLEIKR

>  <pKd>
7.43

$$$$
>  <binder>
NEG0012 (antibody, human IgG1, kappa, V domains shown, Humanized anti-P-cadherin antibody derived from a murine hybridoma; also called NEG0012 Naked) VH: EVQLVQSGAEVKKPGESLKISCKVSGYTFTDHTIHWMRQMPGKGLEWMGYIYPRSGSINYNEKFKGQVTISADKSSSTAYLQWSSLKASDTAMYYCARRNLFLPMEYWGQGTLVTVSS VL: DIVMTQTPLSLPVTPGEPASISCRSSQSLLSSGDQKNYLTWYLQKPGQSPQLLIYWASTRESGVPDRFSGSGSGTDFTLKISRVEAEDVGVYYCQNDYRYPLTFGQGTKLEIKR

>  <pKd>
7.35

$$$$
